Tested on: MS2 coat protein
Assay: apparent KD of MS2 coat protein; designed switch direction (-1 OFF switch, 1 ON switch): -1; higher = weaker reporter binding
Conditions: input ligand: FMN 200 uM
Observed property: apparent KD of MS2 coat protein (nM)
Answers are plain numbers, in nM.

Examples with their reported apparent KD of MS2 coat protein follow.
# Macromolecule sequence, Observed measurement
data = [
    ("ACUAAGGUAGGAUAUACGUGCGUGAUCGUGCCUUAGCUGGCACAUGAGGAUCACCCAUGUAGAAGGGCCAGACA [Esraleon] (Eterna round: R97, puzzle: Exclusion 2)", 17.4),
    ("AAAGAGUGAGGAUAUACAUGAGGAUCACCCAUGUACGUAAUACAAUACGGGUGACGACGUAGAAGGCAUUGCUG [Eternabot (Original) Solution 28] (Eterna round: R97, puzzle: Exclusion 3)", 198),
    ("CCACUGUCAGGAUAUCGUGCAUACAACGAAAGUUCUAUGUGCGAGAAGGGACAUGAGGAUCACCCAUGUAAACG [Omei Ex4 A28] (Eterna round: R97, puzzle: Exclusion 4)", 582),
    ("UUAAUUAAUUUAAUAUAAGAUCACAUGAGGAUCACCCAUGUAUAGGAUAUCAGCUCGUGUAGAGCUGAGAAGGAUACAUAAUAU [ExNG3/2-B3] (Eterna round: R96, puzzle: Exclusion NG 3)", 105),
]

Data request: Item ACUCGACAUGAGGAUCACCCAUGUGAGGAUAUGGCCUGUAUGGCGUGAGCUGGCUCUGUCAGAAGGCGCGUGGG [salish99_ex1_r4_046] (Eterna round: R97, puzzle: Exclusion 1) has what recorded apparent KD of MS2 coat protein?
Data returned: 55.5

====

Test system: K4 kissing-loop RNA reporter;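 further: bound reporter read as fluorescence of individual clusters on recovered sequencing chips by microscopy, with normalized cluster intensities fitted with a binding model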
Assay: apparent KD of K4 kissing-loop reporter; higher = weaker reporter binding
Details: Eterna round: R107; input ligand: none
Please mark condition met if the recorded apparent KD of K4 kissing-loop reporter is equal to or greater than 200 nM, and condition not met if it falls below.

Consider the worked cases shown below.
# Macromolecule sequence, Class label
measured = [
    ("GCCAGUGAUGUUGGCGAACCAACGCAUGCAGAGGAUAUUCGUUCUGGAAGAAGGCUGCAGCGUUAUCAAACGCAGUGAUGUUGCG [Same State FMN A GF 26]", "condition not met"),
    ("UGAUUUAACUGAAGGAGCGGCAAGAGAGAAGGAAAUAUAGUGAUGUUAUAUAAGAGAGAGAGCCAGGUAGGUCGCAGAGGGAGGA [ExArgB.E]", "condition not met"),
    ("UGACAUUGCUCAGAUACCAGACUUGAGGAACACCCAAGUGCCAAAUAAACGUACAUAAAAGUCCCUUGGCAGCUGAGCAAUGUCU [TheoBX 11]", "condition not met"),
]

Data request: Assess whether reported apparent KD of K4 kissing-loop reporter for GGUUCUGGUUUGGAGUGAUGUUCUAAGUGGCAGGAUAUGGAGAGAUCCAGAAGGGCCGUUUGUAUCUUUUUUGUGUGGUUUUUUU [Last Minute #2] sits at 200 nM or higher.
Data returned: condition met

Data request: Textbook exercise: given the entry AAUCGAGUGAUGUUCGAUGUAGUGCAUUCAGAGGAUAUAGGAUGGGCUAGAAGGCUGAAAAGUGCUUCGAGUGAUGUUCGAAGAU [Exclusion FMN A GF 4] , state whether its apparent KD of K4 kissing-loop reporter is greater than or equal to 200 nM.
Data returned: condition not met

Data request: Assess whether reported apparent KD of K4 kissing-loop reporter for AUAUGCUUAGCGGCCGCCACUCCAAUUGGCCGAAAGGCCUGAUACCGAGUGAUGUUCGGUUGGAGGAGGACCGGGCUAGGCGUAU [#2 Exclusion - Tryptophan B Attempt #1 (HarryS)] sits at 200 nM or higher.
Data returned: condition not met

====

Tested on: MS2 coat protein
Experiment: apparent KD of MS2 coat protein; designed switch direction (-1 OFF switch, 1 ON switch): -1; higher = weaker reporter binding
Details: Eterna round: R95; input ligand: none
Observed property: apparent KD of MS2 coat protein

Recorded results for 3 sequences are shown here.
# Macromolecule sequence, apparent KD of MS2 coat protein
rows = [
    ("GGUCAAGAACAGAUCCGCGCUGUCCUUGACCGCUCAUUUACAUGAGGAUCACCCAUGUUUUUUGCUUGUCUUGUUAC [Tixegeis] (puzzle: Sensor v3, turn-off variant 2)", "16.5 nM"),
    ("ACAAGCUUCGAUAUCCUUAACAUGAGGAUCACCCAUGUUCGUCUUAUGAUGGUCUGAUCCCUGAGGAUCGGACCGUU [JL-sv1-2.09 Brourd Mod] (puzzle: Sensor v3, turn-off variant 1)", "40.4 nM"),
    ("GUGUGCAGAGGAUAUACAUAGUAAAAUAAAAUAUAAUAGGGACAUGAGGAUCACCCAUGUAGAAGGCUGAGUGU [Excluse me!! 23 - Jieux - Exclusion 2] (puzzle: Exclusion 2)", "46.1 nM"),
]

Below is a list of sequences. For each, state its recorded apparent KD of MS2 coat protein.
1. GGUUGACAUGAGGAUCACCCAUGUGAGGAUAUGCGAGAGAAAAAAGUGAGGAAGAAAAGUAGAAGGCGCUGACG [salish99-ex1_r3_001] (puzzle: Exclusion 1)
2. AGUACUAUGCGAGCUGACUUGCGUAGUGCAGCAGGUGAAACAUGAGGAUCACCCAUGUCCUCAUUUGCUCGUCUUAU [Mat - Sensor v3 - Turn-off var 2 - D2] (puzzle: Sensor v3, turn-off variant 2)

Data returned:
57.1 nM
33.8 nM

Field: apparent KD of MS2 coat protein. Fill in for each record below.
1. GAAAAGGGAGGAUAUACAAGAAGAAAAGAAAAGAAAAGAAAACAUGAGGAUCACCCAUGUAGAAGGCCCAAAAG [Default title] (puzzle: Exclusion 2)
2. GAUUAUGCGAGCUUUAGGGACAUGAGGAUCACCCAUGUUCGUCUUAUUGGUCUAGGUGCACUGACAUACCUAAAUCU [JMF 91] (puzzle: Sensor v3, turn-off variant 1)

Data returned:
1: 23.8 nM; 2: 20.5 nM

Provide reported apparent KD of MS2 coat protein for each item, in the same order as listed.
1. AAUAACAAGUAAGAUCCUAACAUGAGGAUCACCCAUGUGCUCGUCUUAUAAAGUACUAUCACGAAAGUGAUAGUACA [Sensor 3, v1 - 46] (puzzle: Sensor v3, turn-off variant 1)
2. GGUCGGCGAGGAUAUACAUGAGGAUCACCCAUGUGAUAGAGUGCACGAAAACGUGUACGUAGAAGGCGCUGACG [Mat - Exclusion 3 - Mod of JL D96] (puzzle: Exclusion 3)

Data returned:
43.1 nM
9.24 nM

Data request: // query apparent KD of MS2 coat protein value for entry GGUUGACAUGAGGAUCACCCAUGUGAGGAUAUGCGAGAGAAAAAAGUGAGGAAGGAAUGCAGAAGGCGCUGUCG [salish99-ex1_r3_018] (puzzle: Exclusion 1)
Data returned: 57.7 nM

====

System: MS2 coat protein
Experiment: apparent KD of MS2 coat protein, switch OFF state (with FMN for OFF switches, without FMN for ON switches); designed switch direction (-1 OFF switch, 1 ON switch): -1; higher = weaker reporter binding
Details: FMN input: 0 or 200 uM; Eterna round: R93 (includes R88 designs)
Observed property: apparent KD of MS2 coat protein (nM)
Numbers only, in nM.

Could you report apparent KD of MS2 coat protein for every entry in the following list?
1. AGAUGACAUGAGGAUCACCCAUGUAAGGAUAUACGAGUAGGAGAAUAAAAUGAUAGAAGUAGAAGGUACGUAGA ['Exclusion 1' Lab (2)]
2. AGUCAUACAGGAUAUACAUGAGGAUCACCCAUGUAAAUCCUAAAAAAGUGAUCCUCAUGUAGAAGGGUAUGACA [EX3 220: Super Stable 20]
3. AGAACACAUGAGGAUCACCCAUGUCAGGAUAUUCAAACAAAAACAAAACAAAACAAACGAAGAAGGGACAAAAG [May 2]
4. AAAAAACAUGAGGAUCACCCAUGUAAGGAUAUGCUGAAAAAACACUGGAAACAGUGCAGCAGAAGGUACAAAAA [66%, Wbt, 35]
5. AAAAAGAGAGGAUAUACAUGAGGAUCACCCAUGUGAAAGACGAAAAAAAGUCUAAAGUGUAGAAGGCUCAAAAA [65%, Moding Exclusion3-cac2, 14]

Data returned:
[58.1, 19.7, 36, 27.2, 104]

====

System: MS2 coat protein
Test: apparent KD of MS2 coat protein, switch OFF state (with FMN for OFF switches, without FMN for ON switches); designed switch direction (-1 OFF switch, 1 ON switch): -1; higher = weaker reporter binding
Settings: FMN input: 0 or 200 uM; Eterna round: R93 (includes R88 designs)
Assign apparent KD of MS2 coat protein to each entry below.
One number for each entry, in nM.

# Macromolecule sequence, Observed measurement
records = [
    ("GAGGCUGAAGGAUAUACAAGGGCCUCACCGCCAAAACGGAAACAUGAGGAUCACCCAUGUAGAAGGUCAAUAAA [Reisvexe]", 77),
]

For each of the items listed, what is its apparent KD of MS2 coat protein?
1. CCUAUGUCAGGAUAUCAGUAGUAAAAAAAAAAAAUUACUACUGAGAAGGGACAUGAGGAUCACCCAUGUCCAAA [EX4 312: Super Stable 12]
2. GAAGAACAUGAGGAUCACCCAUGUCAGGAUAUGAAUAACGGAAUAAUACGUUAUGGAAUCAGAAGGGACAAGAA [Ex 1 May 52]
3. AGCUGGUCAGGAUAUGCGUGAAGAAUAAAACAAAUAACAACGCAGAAGGGACAUGAGGAUCACCCAUGUCAGCA [May 50]
4. AAGAACAGAGGAUAUGCUAAAGAAAUAAAAAUAAAUAAAGAACAUGAGGAUCACCCAUGUAGAAGGCUGAAGAA [Seven kings]
5. AAAAAACAUGAGGAUCACCCAUGUGAGGAUAUGCUAAAAAAAUCCGCAUGAAAAAAUAGCAGAAGGCACAUAAA [PK2]

Data returned:
18.4
59.4
20.3
28
52.5
